Test system: MIA PaCa-2 cells (human pancreatic carcinoma cells)
Experiment: Proliferation of MIA PaCa-2 cells, intracellular ATP, CellTiter-Glo test
Format: cell-based
Conditions: 96 hours
Description: b. Study of the Proliferation of Human Tumoral MIA PaCa-2, C-433, LnCaP and MCF7 Cells via Assay of the Intracellular ATP Using the Celltiter-Glo™ Test The kit CellTiter-Glo™ for measuring cell viability via luminescence ([…]) is a homogeneous method for determining the number of viable cells in culture, based on quantification of the ATP present in the cells, and which indicates the presence of metabolically active cells. […] i) the mean±s.e.m. of each series of well replicates was calculated; […]
Reported IC50 values for the following compounds.
Expressed in µM, but write only the number.

// below: answered compounds
Compound | Subject Of Test | Unit Of Measurement | IC50
Cc1n[nH]c2ccc(NC(=O)NC(c3ccccc3)C3CCCCN3C)cc12 (centres unmarked) | MIA PaCa-2 cells (human pancreatic carcinoma cells) | µM | 6.1
S=C(Nc1ccc2[nH]ncc2c1)N[C@@H](c1ccc(Cl)c(Cl)c1)[C@@H]1CCCCN1 | MIA PaCa-2 cells (human pancreatic carcinoma cells) | µM | 6.25
CN1CCCCC1C(NC(=O)Nc1ccc2[nH]nc(C#Cc3ccccc3)c2c1)c1ccccc1 (centres unmarked) | MIA PaCa-2 cells (human pancreatic carcinoma cells) | µM | 0.93

Now for another entry.
Prompt line: // IC50 lookup, key: "O=C(Nc1ccc2[nH]ncc2c1)N[C@H](c1ccc(Cl)c(Cl)c1)[C@H]1CCCCN1"
Response line: 2.9
